This collection of values is drawn from ChEMBL document CHEMBL1201862.

# System: MDA-N
# EXPERIMENTAL_DETAILS: NCI tumour cell line growth inhibition, 48 h
Activity calls are given as the source filed them. Rule as the data show it: active = GI50 up to about 1.1 µM and inactive = higher.
Your reply should match one of these outcome classes. active, inactive

>>> class_label("CCOC(=O)c1cc2c3c(c(C(C)=O)c(OC)c2[nH]1)N(C(=O)CC)CC3")
"inactive"
>>> class_label("COc1ccc(CCNC(=S)NC=C2C(=O)c3ccccc3C2=O)cc1OC")
"inactive"

Next:
Query string: Could you kindly confirm the outcome this assay logged for CC(C)OC(=O)C(NC(=O)C(CC(=O)OCc1ccccc1)NC(=O)OCc1ccccc1)NC(=O)C1C(C)(C)CCC1(C)C (centres undefined) ?
Result string: inactive
